Every entry's value here was drawn from patent US20250034594A1.

Test system: gene editing with dCas9
measurement-notes: Screen of 322 new SSAP proteins, gene editing activity with dCas9 (Table 5)
Format: cell-based
experimental-context: normalized
Parameter dCas9 with SSAP activity (normalized): see the listing below.

Below are worked cases with known answers.
| molecule | dCas9 with SSAP activity (normalized) |
| --- | --- |
| SSAP_271: SEQ ID NO: 440; Nocardia ninae (protein, listed as Nocardia ninae) AESISKEVARQANPLAVVAKYQNELGKSMPAAIRGDVGRWMMVAEMAVRKNPKLLSIVQADQGASLMRALIECARLGHEPGTKYFYLVPRGNQISGEEGYHGIIKRVLNSGHYQKVLARTVFERDEYSFDPLTDQLPTHVPASGERGKPVSAYAFALHWDGTPSTVAEASPERIAAAKAKSYGTDRKDSPWQSVTGVMYRKTAIRELEPYVHTSAEPQPRQDNAGSRGAVMDPSTYDDAEPLDADVLDITADQIAEHDGEGAL | −0.622 |
| SSAP_51: SEQ ID NO: 220 (protein) AENEKQALLQEENKSENVVSTVKRTALATNPFSDTDQFNNIFKMAQLISQSDMIPATYKGKPMNCVIALEQANRMGVSPLMVMQNLYVVKGVPSWSGQGCMMIIQGCGKFRDVDYVYSGEKGTDSRSCKVVATRISDGKRIEGTEITMQMVKSEGWISNTKWKNMPEQMLGYRAATFFARMYCPNELNGFATEGEAEDMNHKPQRIEAINVLGDTAHE | −0.907 |
| SSAP_163: SEQ ID NO: 332; Clostridium sp. Marseille-P3244 (protein, listed as Clostridium sp.) AARATNSVKEELAKKAETKAVGEKKLTRSMSIADLIKAMAPEIKKALPEVITPERFTRMALSALNTTPKLQECTQMSFLAALMNAAQLGLEPNTPLGQAYLIPFNNKGTMECQFQIGYKGLIDLGYRNPQMQIISAQAVYENDEFEYELGLNPKLEHRPALHDRGELRLFYGLFKLVNGGFGFEVMSKEAVDAYAKEYSKSFDSSFSPWKTNYEAMAKKTVIKQALKYAPIKADFRKALSTDETIKNEIAEDMSEIHGEDIFDAEYTEQTA | −0.374 |

Alright, here's another molecule for you.
Q) Given the entry SSAP_103: SEQ ID NO: 272; Zymobacter palmae (protein, listed as Zymobacter palmae) TNTVQQQAPQQDQLAQQLQQASGNTPQKKPMPSTIQGMLKDDRFKTQIARALPKHVTPERIMRIALTEINKTPKLKECDPIGLFGSIVQSAQLGLELGGALGHAYLVPYGKQAQFIIGYRGMIDLARRSGQMVSLQAHTVHENDEFNFEYGLNENLRHVPARGERGPMIAVYAVAKLVGGGHQIEVMWKEDVDAVRKSSKAGGSGPWRDHYEEMAKKTAIRRLFKYLPVSVEMQRAVSLDEQAEEGVQDNNVFDGDYTVAEH , report its measured dCas9 with SSAP activity (normalized).
A) −0.705
